- Tested on: PANC-1 complex spheroid growth, percent test/control
- PROTOCOL: Anticancer human tumor PANC-1 cell line growth inhibition [Asc];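 note: spheroids exposed to agents for 7 days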;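 for viability, T/C: percent viability relative to DMSO vehicle wells taken as 100%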
- EXPERIMENTAL_CONTEXT: second compound 0.316 µM; first compound 3 µM; stronger effect = lower value
For each entry below, report its viability, T/C value.
Answers are plain numbers, in %.

# annotated cases, reported viability, T/C shown
MOLECULE: CCN1C(C(=O)NC23CCC(C(=O)O)(CC2)CC3)C(c2cccc(Cl)c2F)C2(C(=O)Nc3cc(Cl)ccc32)C12CCCCC2 (centres undefined) + Cc1c(S(C)(=O)=O)c(-c2cc(F)cc(N3CCN(c4ccc(NS(=O)(=O)c5ccc(NC(CCN6CCC(C(=O)OCCCP(=O)(O)O)CC6)CSc6ccccc6)c(S(=O)(=O)C(F)(F)F)c5)cc4)CC3)c2)c(-c2ccc(Cl)cc2)n1C(C)C
viability, T/C [%]: 109
--
MOLECULE: CCN1C(C(=O)NC23CCC(C(=O)O)(CC2)CC3)C(c2cccc(Cl)c2F)C2(C(=O)Nc3cc(Cl)ccc32)C12CCCCC2 (centres undefined) + CNC(C)C(=O)NC1CN(S(=O)(=O)c2cccc(S(=O)(=O)N3CCC4CCC(C(=O)NC(c5ccccc5)c5ccccc5)N4C(=O)C(NC(=O)C(C)NC)C3)c2)CCC2CCC(C(=O)NC(c3ccccc3)c3ccccc3)N2C1=O
viability, T/C [%]: 108
--
MOLECULE: Cc1nc(N2CCC3(CC2)COC(C)C3N)c(CO)nc1Sc1ccnc(N)c1Cl (centres undefined) + CNC(C)C(=O)NC1CN(S(=O)(=O)c2cccc(S(=O)(=O)N3CCC4CCC(C(=O)NC(c5ccccc5)c5ccccc5)N4C(=O)C(NC(=O)C(C)NC)C3)c2)CCC2CCC(C(=O)NC(c3ccccc3)c3ccccc3)N2C1=O
viability, T/C [%]: 81.2

Sample Cc1nc(N2CCC3(CC2)COC(C)C3N)c(CO)nc1Sc1ccnc(N)c1Cl (centres undefined) + Cc1c(S(C)(=O)=O)c(-c2cc(F)cc(N3CCN(c4ccc(NS(=O)(=O)c5ccc(NC(CCN6CCC(C(=O)OCCCP(=O)(O)O)CC6)CSc6ccccc6)c(S(=O)(=O)C(F)(F)F)c5)cc4)CC3)c2)c(-c2ccc(Cl)cc2)n1C(C)C ; viability, T/C observed: 86.7

###

- System: PANC-1 complex spheroid growth, percent test/control
- PROTOCOL: Anticancer human tumor PANC-1 cell line growth inhibition [Asc];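 note: spheroids exposed to agents for 7 days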
- EXPERIMENTAL_CONTEXT: curve of first compound; second compound 0.01 µM
ASSAY_ENDPOINT: IC50

Below: 3 molecules and their reported IC50.
MOLECULE: COc1c(OCCCN2CCOCC2)ccc2c3n(c(=NC(=O)c4cnc(N)nc4)nc12)CCN3 + CNC(C)C(=O)NC1CN(S(=O)(=O)c2cccc(S(=O)(=O)N3CCC4CCC(C(=O)NC(c5ccccc5)c5ccccc5)N4C(=O)C(NC(=O)C(C)NC)C3)c2)CCC2CCC(C(=O)NC(c3ccccc3)c3ccccc3)N2C1=O
IC50: 225 nM
--
MOLECULE: O=C(c1cc(Cc2n[nH]c(=O)c3ccccc23)ccc1F)N1CCN(C(=O)C2CC2)CC1 + CNC(C)C(=O)NC1CN(S(=O)(=O)c2cccc(S(=O)(=O)N3CCC4CCC(C(=O)NC(c5ccccc5)c5ccccc5)N4C(=O)C(NC(=O)C(C)NC)C3)c2)CCC2CCC(C(=O)NC(c3ccccc3)c3ccccc3)N2C1=O
IC50: > 10000 nM
--
MOLECULE: C=CC(=O)N1CCN(c2nc(=O)n(-c3c(C)ccnc3C(C)C)c3nc(-c4c(O)cccc4F)c(F)cc23)C(C)C1 (configuration not stated) + CNC(C)C(=O)NC1CN(S(=O)(=O)c2cccc(S(=O)(=O)N3CCC4CCC(C(=O)NC(c5ccccc5)c5ccccc5)N4C(=O)C(NC(=O)C(C)NC)C3)c2)CCC2CCC(C(=O)NC(c3ccccc3)c3ccccc3)N2C1=O
IC50: > 10000 nM

I need IC50 for every entry listed below, if you could help.
1. C#Cc1c(F)ccc2cc(O)cc(-c3ncc4c(N5CC6CCC(C5)N6)nc(OCC56CCCN5CC(F)C6)nc4c3F)c12 (configuration not stated) + CNC(C)C(=O)NC1CN(S(=O)(=O)c2cccc(S(=O)(=O)N3CCC4CCC(C(=O)NC(c5ccccc5)c5ccccc5)N4C(=O)C(NC(=O)C(C)NC)C3)c2)CCC2CCC(C(=O)NC(c3ccccc3)c3ccccc3)N2C1=O
2. NC1CCC(NC2CC2c2ccccc2)CC1 (configuration not stated) + CNC(C)C(=O)NC1CN(S(=O)(=O)c2cccc(S(=O)(=O)N3CCC4CCC(C(=O)NC(c5ccccc5)c5ccccc5)N4C(=O)C(NC(=O)C(C)NC)C3)c2)CCC2CCC(C(=O)NC(c3ccccc3)c3ccccc3)N2C1=O
3. Cn1ncnc1[C@H]1c2n[nH]c(=O)c3cc(F)cc(c23)N[C@@H]1c1ccc(F)cc1 + CNC(C)C(=O)NC1CN(S(=O)(=O)c2cccc(S(=O)(=O)N3CCC4CCC(C(=O)NC(c5ccccc5)c5ccccc5)N4C(=O)C(NC(=O)C(C)NC)C3)c2)CCC2CCC(C(=O)NC(c3ccccc3)c3ccccc3)N2C1=O
4. Cc1nc(N2CCC3(CC2)COC(C)C3N)c(CO)nc1Sc1ccnc(N)c1Cl (configuration not stated) + CNC(C)C(=O)NC1CN(S(=O)(=O)c2cccc(S(=O)(=O)N3CCC4CCC(C(=O)NC(c5ccccc5)c5ccccc5)N4C(=O)C(NC(=O)C(C)NC)C3)c2)CCC2CCC(C(=O)NC(c3ccccc3)c3ccccc3)N2C1=O

Solution:
1: > 10000 nM; 2: > 100 nM; 3: > 100 nM; 4: > 3000 nM
